- Tested on: redroot pigweed (Amaranthus retroflexus, AMARE)
- assayComment: Post-emerge test, greenhouse herbicide activity screening
- Format: in vivo
- runConditions: 63 g ai/ha; phytotoxicity rating 0-100 (0 no damage, 100 complete death), 14 days after application
# label = met if Post-emerge Herbicidal Activity AMARE < 90 else not met

{"columns": ["testSmiles", "testTarget", "discreteLabel"],
 "data": [
  ["COc1c(Cl)cc(F)c(-n2c(=O)cc(C(F)(F)F)n(C)c2=O)c1NC(=O)c1ccc(C)c(C)c1", "redroot pigweed (Amaranthus retroflexus, AMARE)", "not met"],
  ["COc1c(Cl)cc(F)c(-n2c(=O)c([N+](=O)[O-])c(C(F)(F)F)n(C)c2=O)c1[N+](=O)[O-]", "redroot pigweed (Amaranthus retroflexus, AMARE)", "not met"],
  ["COc1c(Cl)cc(F)c(-n2c(=O)cc(C(F)(F)F)n(C)c2=O)c1NC(C)=O", "redroot pigweed (Amaranthus retroflexus, AMARE)", "met"],
  ["C#CCOc1c(Cl)cc(F)c(-n2c(=O)cc(C(F)(F)F)n(C)c2=O)c1N", "redroot pigweed (Amaranthus retroflexus, AMARE)", "met"],
  ["COc1c(Cl)cc(F)c(-n2c(=O)cc(C(F)(F)F)n(C)c2=O)c1NC(=O)CC#N", "redroot pigweed (Amaranthus retroflexus, AMARE)", "met"]
]}

###

- Tested on: upland rice (Oryza sp., var. Tebonnet, RICE)
- assayComment: Pre-emerge test, crop safety
- Assay type: in vivo
- runConditions: 250 g ai/ha; crop damage rating 0-100, 14 days after application
Below, each of the compounds is paired with its reported Pre-emerge Herbicidal Activity RICE value.

{"columns": ["testSmiles", "Pre-emerge Herbicidal Activity RICE"],
 "data": [
  ["COc1c(Cl)cc(F)c(-n2c(=O)cc(C(F)(F)F)n(C)c2=O)c1NC(=O)OCc1cccc(F)c1", 65],
  ["N#CCOc1c(Cl)cc(F)c(-n2c(=O)cc(C(F)(F)F)n(N)c2=O)c1NC(=O)c1ccc2ccccc2c1", 10],
  ["COc1c(Cl)cc(F)c(-n2c(=O)cc(C(F)(F)F)n(C)c2=O)c1NC(=O)Oc1c(C)cc(C)cc1C", 0],
  ["CCc1ccc(COC(=O)Nc2c(OC)c(Cl)cc(F)c2-n2c(=O)cc(C(F)(F)F)n(C)c2=O)cc1", 30]
]}

###

- Tested on: large crabgrass (Digitaria sanguinalis, DIGSA)
- assayComment: Pre-emerge test, greenhouse herbicide activity screening
- Assay type: in vivo
- runConditions: 63 g ai/ha; rating scale 0-100, 14 days after application
readoutName: Pre-emerge herbicidal activity, phytotoxicity rating DIGSA

{"columns": ["compound", "numericResult"],
 "data": [
  ["CCCCCCOC(=O)C(Cl)Cc1c(OC)c(Cl)cc(F)c1-n1c(=O)cc(C(F)(F)F)n(C)c1=O (single isomer, unassigned) [14-12]", 0],
  ["CCCCCOC(=O)C(Cl)Cc1c(OC)c(Cl)cc(F)c1-n1c(=O)cc(C(F)(F)F)n(C)c1=O (single isomer, unassigned) [14-11]", 50],
  ["COc1c(Cl)cc(F)c(-n2c(=O)cc(C(F)(F)F)n(C)c2=O)c1CC(Cl)C(=O)OCC(F)(F)F (centres unmarked) [14-21]", 0],
  ["COc1c(Cl)cc(F)c(N2C(=O)c3ccccc3C2=O)c1NC(=O)c1ccc(F)cc1F [13-4]", 0],
  ["COc1c(Cl)cc(F)c(-n2c(=O)cc(C(F)(F)F)n(C)c2=O)c1CC(Cl)C(=O)OCC(F)(F)C(F)F (centres unmarked) [14-22]", 0],
  ["COc1c(Cl)cc(F)c(-n2c(=O)cc(C(F)(F)F)n(C)c2=O)c1CC(C)(Cl)C(=O)OC(C)C (centres unmarked) [14-39]", 95],
  ["COc1c(Cl)cc(F)c(N2C(=O)C3CCCCN3C2=S)c1NC(=O)c1ccc2ccccc2c1 (centres unmarked) [12-5]", 0],
  ["COc1c(Cl)cc(F)c(-n2c(=O)cc(C(F)(F)F)n(C)c2=O)c1CC(C)(Cl)C(=O)OCc1ccccc1 (centres unmarked) [14-41]", 50],
  ["CCCCCOC(=O)C(C)(Cl)Cc1c(OC)c(Cl)cc(F)c1-n1c(=O)cc(C(F)(F)F)n(C)c1=O (centres unmarked) [14-37]", 0],
  ["COc1c(Cl)cc(F)c(-n2c(=O)cc(C(F)(F)F)n(C)c2=O)c1CC(Cl)C(=O)OCCOc1ccccc1 (single isomer, unassigned) [14-27]", 0],
  ["CCCOC(=O)C(Cl)Cc1c(OC)c(Cl)cc(F)c1-n1c(=O)cc(C(F)(F)F)n(C)c1=O (single isomer, unassigned) [14-7]", 90]
]}

###

- System: upland rice (Oryza sp., var. Tebonnet, RICE)
- assayComment: Pre-emerge test, crop safety
- Assay type: in vivo
- runConditions: 63 g ai/ha; rated 14 days after application; 0 = no damage, 100 = complete death
readoutName: Pre-emerge phytotoxicity rating (0-100), crop damage, RICE

{"columns": ["molecule", "numericResult"],
 "data": [
  ["COc1c(Cl)cc(F)c(-n2c(=O)cc(C(F)(F)F)n(C)c2=O)c1NC(=O)C(C)=Cc1ccccc1 [2-81]", 70],
  ["Cn1c(C(F)(F)F)cc(=O)n(-c2c(F)cc(Cl)c(OCC#N)c2N(C(=O)c2ccc(F)cc2F)C(=O)c2ccc(F)cc2F)c1=O [2-45]", 0],
  ["COc1c(Cl)cc(F)c(-n2c(=O)cc(C(F)(F)F)n(C)c2=O)c1NC(=O)c1ccccc1Cl [2-53]", 80],
  ["COc1c(Cl)cc(F)c(-n2c(=O)cc(C(F)(F)F)n(C)c2=O)c1NC(=O)c1ccc(-c2ccccc2)cc1 [2-37]", 0],
  ["COc1c(Cl)cc(F)c(-n2c(=O)cc(C(F)(F)F)n(N)c2=O)c1NC(=O)c1ccc(F)cc1F [2-44]", 20],
  ["COc1c(Cl)cc(F)c(-n2c(=O)cc(C(F)(F)F)n(C)c2=O)c1NC(=O)c1ccc(C#N)cc1 [2-67]", 90],
  ["COc1c(Cl)cc(F)c(-n2c(=O)cc(C(F)(F)F)n(C)c2=O)c1NC(=O)COCc1ccccc1 [2-89]", 40]
]}

###

- Tested on: large crabgrass (Digitaria sanguinalis, DIGSA)
- assayComment: Pre-emerge test, greenhouse herbicide activity screening
- Assay type: in vivo
- runConditions: 250 g ai/ha; rated 14 days after application; 0 = no damage, 100 = complete death
- Protocol: A standard greenhouse herbicide activity screening system was used to evaluate the herbicidal efficacy and crop safety of these test compounds. […] At 14 days after application of the test materials, phytotoxicity ratings were recorded. […]
readoutName: Pre-emerge Herbicidal Activity, phytotoxicity rating (0-100), DIGSA

{"columns": ["compound", "testTarget", "numericResult"],
 "data": [
  ["COc1c(Cl)cc(F)c(-n2c(=O)cc(C(F)(F)F)n(C)c2=O)c1NC(=O)c1ccc(Cl)cc1Cl [2-58]", "large crabgrass (Digitaria sanguinalis, DIGSA)", 100],
  ["COc1c(Cl)cc(F)c(-n2c(=O)cc(C(F)(F)F)n(C)c2=O)c1NC(=O)c1c(F)cccc1F [2-47]", "large crabgrass (Digitaria sanguinalis, DIGSA)", 100],
  ["COc1c(Cl)cc(F)c(-n2c(=O)cc(C(F)(F)F)n(C)c2=O)c1NC(=O)c1cnc2ccccc2n1 [2-105]", "large crabgrass (Digitaria sanguinalis, DIGSA)", 100],
  ["COc1c(Cl)cc(F)c(-n2c(=O)cc(C(F)(F)F)n(C)c2=O)c1NC(=O)c1ccc(-c2ccccc2)cc1 [2-37]", "large crabgrass (Digitaria sanguinalis, DIGSA)", 0],
  ["COc1c(Cl)cc(F)c(-n2c(=O)cc(C(F)(F)F)n(C)c2=O)c1NC(=O)COCc1ccccc1 [2-89]", "large crabgrass (Digitaria sanguinalis, DIGSA)", 100],
  ["COc1c(Cl)cc(F)c(-n2c(=O)cc(C(F)(F)F)n(N)c2=O)c1NC(=O)c1ccc(F)cc1F [2-44]", "large crabgrass (Digitaria sanguinalis, DIGSA)", 100],
  ["COc1c(Cl)cc(F)c(-n2c(=O)cc(C(F)(F)F)n(C)c2=O)c1NC(=O)c1cccnc1 [2-98]", "large crabgrass (Digitaria sanguinalis, DIGSA)", 95],
  ["COc1c(Cl)cc(F)c(-n2c(=O)cc(C(F)(F)F)n(C)c2=O)c1NC(=O)c1ccc(CCl)cc1 [2-36]", "large crabgrass (Digitaria sanguinalis, DIGSA)", 30],
  ["COc1c(Cl)cc(F)c(-n2c(=O)cc(C(F)(F)F)n(C)c2=O)c1N(C(=O)C=Cc1ccccc1Cl)C(=O)C=Cc1ccccc1Cl [2-83]", "large crabgrass (Digitaria sanguinalis, DIGSA)", 30],
  ["COc1c(Cl)cc(F)c(-n2c(=O)cc(C(F)(F)F)n(C)c2=O)c1NC(=O)c1ccc(F)c(F)c1 [2-48]", "large crabgrass (Digitaria sanguinalis, DIGSA)", 100]
]}
